target: Adenosine receptor A1 (Homo sapiens); experiment: Displacement of [3H]CCPA from recombinant human adenosine A1 receptor expressed in CHO cell membrane after 3 hrs by microbeta scintillation counting method
measurement label: Ki

// below: answered compounds
# smiles str, Ki
measured = [
    ("Clc1ccc(Nc2nc3c(N4CCCCC4)ncnc3s2)cc1", "> 100 µM"),
    ("CCN(CC)c1ncnc2sc(Nc3ccccc3)nc12", "> 100 µM"),
    ("Fc1cccc(F)c1Nc1nc2c(Cl)ncnc2s1", "17.8 µM"),
    ("COc1cc(Nc2nc3c(Cl)ncnc3s2)cc(OC)c1OC", "> 100 µM"),
    ("CCN1CCN(c2ncnc3sc(Nc4ccccc4)nc23)CC1", "> 100 µM"),
]

Task: Item c1ccc(Nc2nc3c(N4CCNCC4)ncnc3s2)cc1 with Adenosine receptor A1 (Homo sapiens) - Ki?
Output: > 30 µM

---

target: Adenosine receptor A2a (Homo sapiens); assay: Displacement of [3H]NECA from recombinant human adenosine A2A receptor expressed in CHO cell membrane after 3 hrs by microbeta scintillation counting method
pKi: −log10 of the molar value.
measurement label: pKi

# smiles str, measurement label, readout number
data = [
    ("c1ccc(Nc2nc3c(N4CCCCC4)ncnc3s2)cc1", "pKi", 6.01),
    ("Clc1ccc(Nc2nc3c(N4CCOCC4)ncnc3s2)cc1", "pKi", 5.85),
    ("Fc1cccc(F)c1Nc1nc2c(N3CCCC3)ncnc2s1", "pKi", 5.65),
]

a = COc1cc(Nc2nc3c(N4CCC[C@H]4CO)ncnc3s2)cc(OC)c1OC
b = OC[C@@H]1CCCN1c1ncnc2sc(Nc3c(F)cccc3F)nc12
Task: Pick one: a or b . Which one has the lower reported pKi? In your reply, give the label of the chosen option.
Output: b
(b: 5.49, a: 6.48)

a = Cc1ccc(Nc2nc3c(N4CCC[C@H]4CO)ncnc3s2)cc1
b = COc1ccc(Nc2nc3c(N4CCC[C@H]4CO)ncnc3s2)cc1
c = COc1ccc(Nc2nc3c(Cl)ncnc3s2)cc1
d = S=C(NCc1ccccc1)N(Cc1ccccc1)c1nc2c(Cl)ncnc2s1
e = COc1cc(Nc2nc3c(N4CCCC4)ncnc3s2)cc(OC)c1OC
Task: Highest pKi first, then in falling order down to the smallest. Please list the labels according to the requested order.
Output: e, a, b, d, c
(e: 6.99, a: 6.50, b: 5.95, d: 5.73, c: 5.45)

---

target: Adenosine receptor A1 (Homo sapiens, UniProt P30542); test: Displacement of [3H]CCPA from recombinant human adenosine A1 receptor expressed in CHO cell membrane after 3 hrs by microbeta scintillation counting method
pKi: −log10 of the molar value.
measurement label: pKi

# smiles str, result
measured = [
    ("COc1cc(Nc2nc3c(N4CCCC4)ncnc3s2)cc(OC)c1OC", "< 4.00"),
    ("O=[N+]([O-])c1ccc(Nc2nc3c(N4CCCC4)ncnc3s2)cc1", "< 4.52"),
    ("CN(C)c1ncnc2sc(Nc3ccc(Cl)cc3)nc12", "< 4.00"),
    ("Cc1ccc(Nc2nc3c(Cl)ncnc3s2)cc1", "< 4.00"),
    ("Brc1cccc(Nc2nc3c(N4CCCC4)ncnc3s2)c1", "< 4.00"),
    ("Cc1ccc(Nc2nc3c(N4CCC[C@H]4CO)ncnc3s2)cc1", 6.40),
    ("Clc1ccc(Nc2nc3c(N4CCOCC4)ncnc3s2)cc1", "< 4.00"),
    ("OC[C@@H]1CCCN1c1ncnc2sc(Nc3cccc(Br)c3)nc12", 6.28),
]

Task: Reported pKi for Fc1cccc(F)c1Nc1nc2c(N3CCCC3)ncnc2s1 : what is it?
Output: 5.64

Task: Look up pKi: c1ccc(Nc2nc3c(N4CCCCC4)ncnc3s2)cc1
Output: < 4.52

---

biological target: Adenosine receptor A2a (Homo sapiens); assay: Displacement of [3H]NECA from recombinant human adenosine A2A receptor expressed in CHO cell membrane after 3 hrs by microbeta scintillation counting method
pKi: −log10 of the molar value.
measurement label: pKi

Record excerpt, results attached:
# smiles str, target or test system, readout number
data = [
    ("Fc1cccc(F)c1Nc1nc2c(Cl)ncnc2s1", "Adenosine receptor A2a (Homo sapiens)", 5.09),
    ("O=C(Nc1nc2c(Cl)ncnc2s1)c1ccccc1", "Adenosine receptor A2a (Homo sapiens)", 5.82),
    ("O=[N+]([O-])c1ccc(Nc2nc3c(N4CCCC4)ncnc3s2)cc1", "Adenosine receptor A2a (Homo sapiens)", 5.50),
    ("CCN(CC)c1ncnc2sc(Nc3ccc(Cl)cc3)nc12", "Adenosine receptor A2a (Homo sapiens)", 4.95),
    ("CCN1CCN(c2ncnc3sc(Nc4ccccc4)nc23)CC1", "Adenosine receptor A2a (Homo sapiens)", 5.08),
]

1 = CN1CCN(c2ncnc3sc(Nc4ccccc4)nc23)CC1
2 = Cc1ccc(Nc2nc3c(Cl)ncnc3s2)cc1
Task: Of 1 and 2 , whose reported pKi is the larger number? Response format: the label of the selected entry.
Output: 1
(1: 5.55, 2: 5.31)

I = CCN(CC)c1ncnc2sc(Nc3ccccc3)nc12
II = Cc1ccc(Nc2nc3c(N4CCCC4)ncnc3s2)cc1
III = Brc1cccc(Nc2nc3c(N4CCCC4)ncnc3s2)c1
Task: Would you mind ranking these compounds by ascending pKi? Dear reader, please state the labels in the requested order.
Output: I, II, III
(I: 5.66, II: 6.01, III: 6.61)

---

Biological target: Adenosine receptor A1 (Homo sapiens, UniProt P30542)
Sequence (P30542 whole entry): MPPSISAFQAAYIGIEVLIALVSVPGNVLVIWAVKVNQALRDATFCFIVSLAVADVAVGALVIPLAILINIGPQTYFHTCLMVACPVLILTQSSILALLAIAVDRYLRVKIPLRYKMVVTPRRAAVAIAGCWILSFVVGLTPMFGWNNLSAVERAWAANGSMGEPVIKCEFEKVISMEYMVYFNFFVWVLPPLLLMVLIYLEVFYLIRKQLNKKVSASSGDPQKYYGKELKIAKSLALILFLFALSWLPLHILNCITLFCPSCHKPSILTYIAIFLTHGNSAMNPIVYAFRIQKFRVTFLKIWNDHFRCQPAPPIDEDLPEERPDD
Test: Displacement of [3H]CCPA from recombinant human adenosine A1 receptor expressed in CHO cell membrane after 3 hrs by microbeta scintillation counting method
pKi: −log10 of the molar value.
pKi reference

# smiles str, target or test system, pKi
records = [
    ("c1ccc(Nc2nc3c(N4CCC(N5CCCCC5)CC4)ncnc3s2)cc1", "Adenosine receptor A1 (Homo sapiens, UniProt P30542)", "< 4.00"),
    ("OC[C@@H]1CCCN1c1ncnc2sc(Nc3c(F)cccc3F)nc12", "Adenosine receptor A1 (Homo sapiens, UniProt P30542)", 5.10),
    ("Clc1ccc(Nc2nc3c(Cl)ncnc3s2)cc1", "Adenosine receptor A1 (Homo sapiens, UniProt P30542)", 4.60),
    ("Clc1ncnc2sc(Nc3ccccc3)nc12", "Adenosine receptor A1 (Homo sapiens, UniProt P30542)", "< 4.00"),
    ("c1ccc(Nc2nc3c(N4CCOCC4)ncnc3s2)cc1", "Adenosine receptor A1 (Homo sapiens, UniProt P30542)", "< 4.00"),
]

Task: Quick one: pKi for Clc1ncnc2sc(NCCN3CCOCC3)nc12 ?
Output: < 4.00

Task: Which measured pKi value corresponds to Clc1ncnc2sc(Nc3cccc(Br)c3)nc12 ?
Output: 4.90

Task: I have this molecule here, Clc1ccc(Nc2nc3c(N4CCCC4)ncnc3s2)cc1 , and I need its recorded pKi.
Output: < 4.00

---

The entries below are paired with their reported pKi.
molecular target: Adenosine receptor A2a (Homo sapiens, UniProt P29274); assay: Displacement of [3H]NECA from recombinant human adenosine A2A receptor expressed in CHO cell membrane after 3 hrs by microbeta scintillation counting method
Sequence (P29274 whole entry): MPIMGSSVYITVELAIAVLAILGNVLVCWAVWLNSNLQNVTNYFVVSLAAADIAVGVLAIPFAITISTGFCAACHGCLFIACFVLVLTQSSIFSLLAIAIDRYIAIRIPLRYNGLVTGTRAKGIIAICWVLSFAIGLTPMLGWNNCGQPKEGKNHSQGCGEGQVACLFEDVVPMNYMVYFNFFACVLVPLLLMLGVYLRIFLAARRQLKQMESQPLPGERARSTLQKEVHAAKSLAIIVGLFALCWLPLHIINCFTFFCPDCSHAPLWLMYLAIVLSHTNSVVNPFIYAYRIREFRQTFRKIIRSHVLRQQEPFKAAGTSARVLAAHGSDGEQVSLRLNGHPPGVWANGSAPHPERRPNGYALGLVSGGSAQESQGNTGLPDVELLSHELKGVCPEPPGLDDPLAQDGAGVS
pKi: −log10 of the molar value.

// below: answered compounds
# smiles str, pKi
rows = [
    ("CN(C)c1ncnc2sc(Nc3ccc(Cl)cc3)nc12", "< 4.00"),
    ("Clc1ncnc2sc(NCCN3CCOCC3)nc12", "< 4.00"),
    ("Clc1ncnc2sc(Nc3ccccc3)nc12", 5.82),
]

Task: // query pKi value for entry CN1CCN(c2ncnc3sc(Nc4ccc(Cl)cc4)nc23)CC1
Output: < 4.00

Task: Dear colleague, I am looking for the recorded pKi of the following compound: O=[N+]([O-])c1ccc(Nc2nc3c(Cl)ncnc3s2)cc1
Output: < 4.52

Task: // pKi lookup, key: c1ccc(Nc2nc3c(N4CCC(N5CCCCC5)CC4)ncnc3s2)cc1
Output: < 4.00
